target: (recombinant) catalytic domain of human Bub1 (amino acids 704-1085) (Homo sapiens); construct: catalytic domain of human Bub1 (amino acids 704-1085); 6xHis (N); made in house; host or cells: Hi5 insect cells; assay: Equilibrium probe competition assay (TR-FRET kinase binding assay); settings: Time 30 min; read-out: IC50 (Assay 5, probe competition)
recorded.endpoint: pIC50
Remember, pIC50 is on a log scale: it is -log10 of the molar concentration.

Worked cases, pIC50 given:
compound	pIC50
CCOc1cc(F)c(Cn2nc(-c3ncc(OCCCO)c(Nc4ccncc4Cl)n3)c3ccccc32)c(F)c1 [Example 2-1-6]	9.06
CCOc1cc(F)c(Cn2nc(-c3ncc(OCCCOC(=O)[C@H](C)NC(=O)[C@@H](N)CCCCN)c(Nc4ccnc(C(F)F)c4)n3)c3ccccc32)c(F)c1 [Example 4-1-1]	8.82
CCOc1cc(F)c(Cn2nc(-c3ncc(OCCCO)c(Nc4ccnc(NC(C)=O)c4)n3)c3ccccc32)c(F)c1 [Example 2-1-5]	9.31
CCOc1cc(F)c(Cn2nc(-c3ncc(OCCCOC(=O)[C@H](C)NC(=O)[C@@H](N)CCCNC(=N)N)c(Nc4ccnc(NC(C)=O)c4)n3)c3ccccc32)c(F)c1 [Example 4-1-4]	9.24
CCOc1cc(F)c(Cn2nc(-c3ncc(OCCCOC(=O)[C@H](C)NC(=O)[C@@H](N)CCCCN)c(Nc4ccncc4Cl)n3)c3ccccc32)c(F)c1 [Example 4-1-5]	9.09

Consider the record given below.
Return pIC50 (reported value) for this compound: CCOc1cc(F)c(Cn2nc(-c3ncc(OCCCOC(=O)[C@H](C)NC(=O)[C@H](N)CCCCN)c(Nc4ccnc(NC(C)=O)c4)n3)c3ccccc32)c(F)c1 [Example 4-1-3]
9.19

###

tested on: pre-induced phospho-histone 2A (kinase activity of Bub1); assay: H2A Abrogation-Assay (cell-based mechanistic assay, pre-treatment with Nocodazole); conditions: Nocodazole 16 h, then test compound 1 h; read-out: Biological Assay 4:2: H2A Abrogation IC50
// IC50 lookup, one value per entry
// units = nM; emit number, no label

In [3]: df
Out[3]:
                                   compound  recorded_endpoint  unit_descriptor  recorded_result
0  OCCCOc1cnc(-c2nn(Cc3c(F)cc(OCC(F)F)cc3F)c3ccccc23)nc1Nc1ccncc1Cl [Example 2-1-26]               IC50               nM               38
1  CCOc1cc(F)c(Cn2nc(-c3ncc(OCCCO)c(Nc4ccncn4)n3)c3ccccc32)c(F)c1 [Example 2-1-9]               IC50               nM               33
2  CCOc1cc(F)c(Cn2nc(-c3ncc(OCCCO)c(Nc4ccncc4C4CC4)n3)c3ccccc32)c(F)c1 [Example 2-1-3]               IC50               nM             0.93
3  CCOc1cc(F)c(Cn2nc(-c3ncc(OCCCO)c(Nc4ccnc(NC(C)=O)c4C)n3)c3ccccc32)c(F)c1 [Example 2-1-17]               IC50               nM              3.9
4  CCOc1cc(F)c(Cn2nc(-c3ncc(OCCCO)c(Nc4ccnc(C)c4)n3)c3ccccc32)c(F)c1 [Example 2-1-4]               IC50               nM               80
5  Cc1nccc(Nc2nc(-c3nn(Cc4c(F)cc(OCC(F)(F)F)cc4F)c4ccccc34)ncc2OCCCO)n1 [Example 2-1-19]               IC50               nM              2.5

Consider the record given below.
Return IC50 (reported value) for this compound: Cc1nccc(Nc2nc(-c3nn(Cc4c(F)cc(OCC(F)F)cc4F)c4ccccc34)ncc2OCCCO)n1 [Example 2-1-21]
56

###

test: Stability in buffer at various pH values (HPLC detection); format: physicochemical; settings: pH 7.4, 4 h, 37° C., prodrug remaining
Threshold 40%: Stability pH7.4: % Test Compound after 4 h [F(t = 4 h) × 100/F(t = 0 h)] strictly smaller gives met, otherwise not met.

Observe how each entry below is paired with its result.
>>> df
                         compound_structure  group_label
0  CCOc1cc(F)c(Cn2nc(-c3ncc(OCCCOC(=O)[C@@H](NC(=O)[C@@H](N)CCCCN)C(C)C)c(Nc4ccncc4Cl)n3)c3ccccc32)c(F)c1      not met
1  CCOc1cc(F)c(Cn2nc(-c3ncc(OCCCOC(=O)[C@H](C)NC(=O)[C@H](N)CCCCN)c(Nc4cc(C)ncc4C)n3)c3ccccc32)c(F)c1      not met
2  CCOc1cc(F)c(Cn2nc(-c3ncc(OCCCOC(=O)[C@H](C)NC(=O)[C@@H](N)CCCCN)c(Nc4ccnc(C(F)F)c4)n3)c3ccccc32)c(F)c1          met
3  CCOc1cc(F)c(Cn2nc(-c3ncc(OCCCOC(=O)[C@H](C)NC(=O)[C@@H](N)CCCNC(=N)N)c(Nc4ccncc4Cl)n3)c3ccccc32)c(F)c1      not met
4  CCOc1cc(F)c(Cn2nc(-c3ncc(OCCCOC(=O)[C@H](C)NC(=O)[C@@H](N)CCCCN)c(Nc4ccncc4Cl)n3)c3ccccc32)c(F)c1      not met

Below 40% on Stability pH7.4: % Test Compound after 4 h [F(t = 4 h) × 100/F(t = 0 h)]? Entry CCOc1cc(F)c(Cn2nc(-c3ncc(OCCCOC(=O)[C@H](C)NC(=O)[C@@H](N)CCCNC(=N)N)c(Nc4ccnc(NC(C)=O)c4)n3)c3ccccc32)c(F)c1
not met

Below 40% on Stability pH7.4: % Test Compound after 4 h [F(t = 4 h) × 100/F(t = 0 h)]? Entry CCOc1cc(F)c(Cn2nc(-c3ncc(OCCCOC(=O)[C@H](C)NC(=O)[C@@H](N)CCCCN)c(Nc4ccnc(NC(C)=O)c4)n3)c3ccccc32)c(F)c1
met

Below 40% on Stability pH7.4: % Test Compound after 4 h [F(t = 4 h) × 100/F(t = 0 h)]? Entry CCOc1cc(F)c(Cn2nc(-c3ncc(OCCCOC(=O)[C@H](C)NC(=O)[C@@H](N)CCCCN)c(Nc4cc(C)ncc4C)n3)c3ccccc32)c(F)c1
not met

Below 40% on Stability pH7.4: % Test Compound after 4 h [F(t = 4 h) × 100/F(t = 0 h)]? Entry CCOc1cc(F)c(Cn2nc(-c3ncc(OCCCOC(=O)[C@H](C)NC(=O)[C@H](N)CCCCN)c(Nc4ccnc(NC(C)=O)c4)n3)c3ccccc32)c(F)c1
met

###

// Stability pH4: % Test Compound after 4 h [F(t = 4 h) × 100/F(t = 0 h)] lookup, one value per entry
Assay: Stability in buffer at various pH values (HPLC detection)
Format: physicochemical
Conditions: pH 4, 4 h, 37° C., prodrug remaining
Experimental: Stability in Buffer at Various pH Values (HPLC Detection) 0.3 mg of the test compound was solved in 0.1 ml dimethylsulfoxide and 0.4 ml acetonitrile. For complete dissolution the HPLC vial with the sample solution was sonified for about 20 seconds. […] 10 μl portions of the sample solution were analysed by HPLC at different times (0 h, 1 h, 2 h, 4 h and 24 h) at 37° C. The peak areas in percentage were used for quantification. […]
// units = %; emit number, no label

Worked cases, Stability pH4: % Test Compound after 4 h [F(t = 4 h) × 100/F(t = 0 h)] given:
>>> print(df.to_string())
                         compound_structure  recorded_result
0  CCOc1cc(F)c(Cn2nc(-c3ncc(OCCCOC(=O)[C@H](C)NC(=O)[C@@H](N)CCCCN)c(Nc4ccncc4Cl)n3)c3ccccc32)c(F)c1              101
1  CCOc1cc(F)c(Cn2nc(-c3ncc(OCCCOC(=O)[C@@H](NC(=O)[C@@H](N)CCCCN)C(C)C)c(Nc4ccncc4Cl)n3)c3ccccc32)c(F)c1               99
2  CCOc1cc(F)c(Cn2nc(-c3ncc(OCCCOC(=O)[C@H](C)NC(=O)[C@H](N)CCCCN)c(Nc4ccnc(NC(C)=O)c4)n3)c3ccccc32)c(F)c1              100
3  CCOc1cc(F)c(Cn2nc(-c3ncc(OCCCOC(=O)[C@H](C)NC(=O)[C@H](N)CCCCN)c(Nc4cc(C)ncc4C)n3)c3ccccc32)c(F)c1              101
4  CCOc1cc(F)c(Cn2nc(-c3ncc(OCCCOC(=O)[C@H](C)NC(=O)[C@@H](N)CCCCN)c(Nc4ccnc(NC(C)=O)c4)n3)c3ccccc32)c(F)c1              100

Return Stability pH4: % Test Compound after 4 h [F(t = 4 h) × 100/F(t = 0 h)] (reported value) for this molecule: CCOc1cc(F)c(Cn2nc(-c3ncc(OCCCOC(=O)[C@H](C)NC(=O)[C@@H](N)CCCCN)c(Nc4ccnc(C(F)F)c4)n3)c3ccccc32)c(F)c1
100

Return Stability pH4: % Test Compound after 4 h [F(t = 4 h) × 100/F(t = 0 h)] (reported value) for this molecule: CCOc1cc(F)c(Cn2nc(-c3ncc(OCCCOC(=O)[C@H](C)NC(=O)[C@@H](N)CCCCN)c(Nc4cc(C)ncc4C)n3)c3ccccc32)c(F)c1
99

Return Stability pH4: % Test Compound after 4 h [F(t = 4 h) × 100/F(t = 0 h)] (reported value) for this molecule: CCOc1cc(F)c(Cn2nc(-c3ncc(OCCCOC(=O)[C@H](C)NC(=O)[C@@H](N)CCCNC(=N)N)c(Nc4ccnc(NC(C)=O)c4)n3)c3ccccc32)c(F)c1
100

Return Stability pH4: % Test Compound after 4 h [F(t = 4 h) × 100/F(t = 0 h)] (reported value) for this molecule: CCOc1cc(F)c(Cn2nc(-c3ncc(OCCCOC(=O)[C@H](C)NC(=O)[C@@H](N)CCCNC(=N)N)c(Nc4ccncc4Cl)n3)c3ccccc32)c(F)c1
100
